Cited source for all entries: the supplement of paper PMC10567573

Would you kindly list protein stability index for each of these variants?
B1: ALDH8A1 (parent)
chain: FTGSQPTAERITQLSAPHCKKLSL

Variants of: B1
Assay: protein stability index of a GFP-peptide fusion (GPS, HEK-293T) (PSI 1-6); higher = more stable;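 also: lentivirally expressed fusions sorted by FACS into six bins by GFP to DsRed ratio, PSI derived from sequencing read proportions per bin multiplied by bin number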
Details: c terminus: a fixed tail appended
Give bare numbers.

The following variants have reported results that may help.
Query: Check the records and state protein stability index for FTGSDPTAERITQLSAPHCKKLSL [Q5D]
Result: 2.19

Query: Using known records, supply protein stability index for FTGSQPTMERITQLSAPHCKKLSL [A8M]
Result: 2.58

Query: Find the measured protein stability index of FTGSQPTAEIITQLSAPHCKKLSL [R10I] and report it.
Result: 1.92

Query: Identify the reported protein stability index for the following entry. FTGSQPTAERITQLSAPHCKKKSL [L22K]
Result: 2.68

Could you report protein stability index for every entry in the following list?
1. FTGSQPTAERITQLSCPHCKKLSL [A16C]
2. FTGSQPTAERITQNSAPHCKKLSL [L14N]
3. FTGMQPTAERITQLSAPHCKKLSL [S4M]
4. FTGSQPTQERITQLSAPHCKKLSL [A8Q]
5. FTGSQPTASRITQLSAPHCKKLSL [E9S]

Result:
1. 1.55
2. 2.4
3. 1.98
4. 2.4
5. 1.86

Provide reported protein stability index for each item, in the same order as listed.
1. FTGSQPTAERPTQLSAPHCKKLSL [I11P]
2. FTGSEPTAERITQLSAPHCKKLSL [Q5E]

Result:
1: 3.32; 2: 2.57

For each listed entry, give its protein stability index.
1. FTGSQPTAERITQLSAPMCKKLSL [H18M]
2. FCGSQPTAERITQLSAPHCKKLSL [T2C]
3. FTGSQPTAERITQLSAPHCCKLSL [K20C]

Result:
1. 2.24
2. 1.86
3. 2.09

For each of the variants below, note its protein stability index.
1. FTGSQPTAEGITQLSAPHCKKLSL [R10G]
2. FTGSQPTAEPITQLSAPHCKKLSL [R10P]
3. FTGSQPTAERITQLDAPHCKKLSL [S15D]
4. FTGSQPTAERRTQLSAPHCKKLSL [I11R]
5. FTGSQPTAERITQLHAPHCKKLSL [S15H]
6. FTGSQPTAERITQLFAPHCKKLSL [S15F]

Result:
1. 2.28
2. 2.7
3. 2.18
4. 2.81
5. 1.85
6. 3.03

Please give protein stability index, item by item, for the list that follows.
1. FTGSQPTAERITQLSAFHCKKLSL [P17F]
2. FTGSQPTAERITQLSAPHCKILSL [K21I]
3. FHGSQPTAERITQLSAPHCKKLSL [T2H]
4. FTGSQPTAERITQLSAPHCKHLSL [K21H]
5. FTGSQPTAERITQLSAAHCKKLSL [P17A]

Result:
1. 1.85
2. 1.71
3. 2.2
4. 2.1
5. 2.49

Respectfully, I request protein stability index for each entry included below.
1. FTGSQPTAERITQLSAPHCKKLVL [S23V]
2. FTGSQPTAERITQLSAWHCKKLSL [P17W]
3. FTGSQPTAESITQLSAPHCKKLSL [R10S]
4. FTGSQPTAERITQLSAPHCWKLSL [K20W]

Result:
1. 1.93
2. 2.46
3. 2.42
4. 1.61

// for each variant in input: emit protein stability index
1. FTGFQPTAERITQLSAPHCKKLSL [S4F]
2. FTGSQPTTERITQLSAPHCKKLSL [A8T]
3. FTGSTPTAERITQLSAPHCKKLSL [Q5T]
4. FTGSQDTAERITQLSAPHCKKLSL [P6D]
5. FTGSQPTAERINQLSAPHCKKLSL [T12N]
6. FTGSQPTAFRITQLSAPHCKKLSL [E9F]
7. FTGSQPTAERITQLSAPHNKKLSL [C19N]

Result:
2.03
2.24
2.24
2.43
2.25
2.74
2.16

Quick batch: protein stability index for everything below.
1. FTGSQPTAERITQLSAPQCKKLSL [H18Q]
2. FRGSQPTAERITQLSAPHCKKLSL [T2R]
3. FTGSQPTAERIKQLSAPHCKKLSL [T12K]
4. FTGCQPTAERITQLSAPHCKKLSL [S4C]
5. FTGSQPTAERITQLSAPHCKKHSL [L22H]
6. FTGSQPTAERITQSSAPHCKKLSL [L14S]
7. FTGSQPTAERITQLSAPHMKKLSL [C19M]
8. FTGSQPTAERITQLSAPHRKKLSL [C19R]

Result:
2.29
3.37
2.3
2.31
2.29
2.76
1.96
2.45

List the reported protein stability index of each variant below.
1. FTGSQPTAERITQLSAPHCKALSL [K21A]
2. FTGSQPTAERITQLYAPHCKKLSL [S15Y]

Result:
2.56
3.69
